Here the recorded ulcer index (means ± S.E.) is given for each entry.
# Test system: ulcers developed in Shay rats
# method_notes: Pylorus ligation (Shay) ulcer test in rats
# Format: in vivo, rat (Sprague-Dawley, male)
# condition_label: Table 1, intra-duodenal, 100 mg/kg, 18 h
Write down the numeric answer in mm and omit the unit.

Known ulcer index (means ± S.E.) results, listed for orientation:
Qu. Name the recorded ulcer index (means ± S.E.) of the compound listed here: Cc1ccc(C(=O)O)c(Nc2ccccc2C(=O)O)c1 [Compound 6]
Ans. 0.3

Qu. Name the recorded ulcer index (means ± S.E.) of the compound listed here: Cc1ccc(Nc2cc(Cl)ccc2C(=O)O)c(C(=O)O)c1 [Compound 2]
Ans. 0.3

Qu. Name the recorded ulcer index (means ± S.E.) of the compound listed here: Cc1c(Cl)ccc(C(=O)O)c1Nc1ccccc1C(=O)O [Compound 5]
Ans. 0.1

Next compound, please.
Qu. Name the recorded ulcer index (means ± S.E.) of the compound listed here: O=C(O)c1ccc(Cl)cc1Nc1cc(Cl)ccc1C(=O)O [Compound 3]
Ans. 0.9

###

# System: rats with stress-induced ulcer
# method_notes: Restraint and water immersion stress ulcer test in rats (Takagi et al.)
# Type: in vivo, rat (Sprague-Dawley, male)
# condition_label: Rattus norvegicus; Table 2, oral, 200 mg/kg, 16 h immersion
readout_type: inhibition in vivo at 200 mg/kg (%)
Write down the numeric answer in % and omit the unit.

Qu. Name the recorded inhibition in vivo at 200 mg/kg of the compound listed here: Cc1ccc(C(=O)O)c(Nc2ccccc2C(=O)O)c1 [Compound 6]
Ans. 100

Qu. Name the recorded inhibition in vivo at 200 mg/kg of the compound listed here: Cc1c(Cl)ccc(C(=O)O)c1Nc1ccccc1C(=O)O [Compound 5]
Ans. 100

Qu. Name the recorded inhibition in vivo at 200 mg/kg of the compound listed here: O=C(O)c1ccc(Cl)cc1Nc1cc(Cl)ccc1C(=O)O [Compound 3]
Ans. 92

Next compound, please.
Qu. Name the recorded inhibition in vivo at 200 mg/kg of the compound listed here: Cc1ccc(Nc2cc(Cl)ccc2C(=O)O)c(C(=O)O)c1 [Compound 2]
Ans. 100

###

# Tested on: rats with stress-induced ulcer
# method_notes: Restraint and water immersion stress ulcer test in rats (Takagi et al.)
# Type: in vivo, rat (Sprague-Dawley, male)
# condition_label: Table 4, as in Example 2 (oral), 200 mg/kg
Doc: threshold 4 mm (exclusive). Items with ulcer index (means ± S.E.) beneath it return 1 (yes); others return 0 (no).

Examples with answers:
Qu. Dear colleague, could you confirm whether ulcer index (means ± S.E.) of Cc1cc(C(=O)O)c(Nc2ccccc2C(=O)O)cc1Cl falls below 4 mm? Thanks.
Ans. 1 (yes)

Qu. Dear colleague, could you confirm whether ulcer index (means ± S.E.) of Cc1cc(Nc2ccccc2C(=O)O)c(C(=O)O)cc1C falls below 4 mm? Thanks.
Ans. 1 (yes)

Qu. Dear colleague, could you confirm whether ulcer index (means ± S.E.) of Cc1ccc(C(=O)O)c(Nc2cc(Cl)ccc2C(=O)O)c1C falls below 4 mm? Thanks.
Ans. 0 (no)

Qu. Dear colleague, could you confirm whether ulcer index (means ± S.E.) of Cc1cc(C)c(C(=O)O)c(Nc2ccccc2C(=O)O)c1 falls below 4 mm? Thanks.
Ans. 1 (yes)

Qu. Dear colleague, could you confirm whether ulcer index (means ± S.E.) of COc1cc(Nc2ccccc2C(=O)O)c(C(=O)O)cc1OC falls below 4 mm? Thanks.
Ans. 1 (yes)

New cases:
Qu. Dear colleague, could you confirm whether ulcer index (means ± S.E.) of Cc1cc(C)c(C(=O)O)c(Nc2cc(Cl)ccc2C(=O)O)c1 falls below 4 mm? Thanks.
Ans. 0 (no)

Qu. Dear colleague, could you confirm whether ulcer index (means ± S.E.) of COc1ccc(C(=O)O)c(Nc2cc(Cl)ccc2C(=O)O)c1 falls below 4 mm? Thanks.
Ans. 1 (yes)

Qu. Dear colleague, could you confirm whether ulcer index (means ± S.E.) of Cc1ccc(C(=O)O)c(Nc2ccccc2C(=O)O)c1C falls below 4 mm? Thanks.
Ans. 1 (yes)

Qu. Dear colleague, could you confirm whether ulcer index (means ± S.E.) of Cc1cc(Nc2cc(Cl)ccc2C(=O)O)c(C(=O)O)cc1C falls below 4 mm? Thanks.
Ans. 0 (no)
